B1: Twister Ribozyme (parent)
chain: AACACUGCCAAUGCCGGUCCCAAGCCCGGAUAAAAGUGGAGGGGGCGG

# Variants of: B1
# assay remarks: self-cleavage, relative activity (ratio to wild type); higher = more cleavage; co-transcriptional
Mark F for self-cleavage values under 0.2, and T for everything at or above.

{"residue change": "G45U G48C", "class name": "T"}
{"residue change": "C15U A30C", "class name": "T"}
{"residue change": "A11C G24U", "class name": "F"}
{"residue change": "C8U G38A", "class name": "T"}
{"residue change": "A2U U31C", "class name": "T"}
{"residue change": "G43C G44C", "class name": "T"}
{"residue change": "G17U U18A", "class name": "F"}
{"residue change": "C5U A34G", "class name": "T"}
{"residue change": "C27G U31G", "class name": "F"}
{"residue change": "C5G C26U", "class name": "F"}
{"residue change": "A4U C20U", "class name": "F"}
{"residue change": "C14A G45U", "class name": "T"}
{"residue change": "A11U C19A", "class name": "T"}
{"residue change": "A23U G45A", "class name": "T"}
{"residue change": "C8U G17U", "class name": "F"}
{"residue change": "C9G G36U", "class name": "F"}
{"residue change": "G39C G48C", "class name": "F"}
{"residue change": "A1C A35U", "class name": "F"}
{"residue change": "U18C G42A", "class name": "F"}
{"residue change": "A10G C26A", "class name": "T"}
{"residue change": "C15U G44C", "class name": "T"}
